# reported pKi; entries follow
- method_description: Inhibition of HCV NS5B RNA polymerase assessed as incorporation of 32P-UMP into RNA
- Set-up: species or system Hepacivirus hominis
Reminder that pKi means the negative base-10 logarithm of the concentration expressed in mol/L.

>>> data_value("C[C@@]1(F)[C@H](O)[C@@H](COP(=O)(O)OP(=O)(O)OP(=O)(O)O)O[C@H]1n1ccc(N)nc1=O")
5.37

Respond only with pKi recorded for C[C@@]1(O)[C@H](O)[C@@H](COP(=O)(O)OP(=O)(O)OP(=O)(O)O)O[C@H]1n1cnc2c(N)ncnc21
5.82

Respond only with pKi recorded for C[C@@]1(O)[C@H](O)[C@@H](COP(=O)(O)OP(=O)(O)OP(=O)(O)O)O[C@H]1n1ccc(N)nc1=O [2'-C-METHYLCYTIDINE TRIPHOSPHATE]
5.80
